# testDetails: Metabolic stability in human liver microsomes assessed as parent compound remaining at 0.5 uM after 10 mins in presence of NADPH by LC-MS/MS analysis
measurementType: remaining at 10 min, 0.5 µM (%)

**Query** Entry under review: `CC1(C)CCC(NCC(C)(C)CCN(C[C@H]2Cc3ccccc3CN2)[C@H]2CCCc3cccnc32)CC1` . Reported remaining at 10 min, 0.5 µM?
**Result** 23.9

**Query** `c1ccc2c(c1)CN[C@@H](CN(Cc1ccc(CNC3CCOCC3)cc1)[C@H]1CCCc3cccnc31)C2` , same question.
**Result** 20.4

**Query** `CC1(C)CCC(NCc2ccc(CN(C[C@H]3Cc4ccccc4CN3)[C@H]3CCCc4cccnc43)cc2)CC1` , same question.
**Result** 14.9

a = CC(C)(CN)CCN(C[C@H]1Cc2ccccc2CN1)[C@H]1CCCc2cccnc21
b = O=S1(=O)CCC(NCCCCN(C[C@H]2Cc3ccccc3CN2)[C@H]2CCCc3cccnc32)CC1
c = c1ccc2c(c1)CN[C@@H](CN(CCCCNC1CCSCC1)[C@H]1CCCc3cccnc31)C2
d = c1ccc2c(c1)CN[C@@H](CN(Cc1ccc(CNCc3ccncc3)cc1)[C@H]1CCCc3cccnc31)C2
e = CC(C)(CCN(C[C@H]1Cc2ccccc2CN1)[C@H]1CCCc2cccnc21)CNC1CCOCC1
**Query** Sort the molecules on remaining at 10 min, 0.5 µM; start with the lowest figure. To answer, write out the labels according to the requested order.
**Result** d, b, e, c, a
(d: 0.882%, b: 11.7%, e: 21.8%, c: 39.9%, a: 88.7%)

I = c1ccc2c(c1)CN[C@@H](CN(CCCCNCC1CCNCC1)[C@H]1CCCc3cccnc31)C2
II = c1ccc2c(c1)CN[C@@H](CN(CCCCNCC1CCSCC1)[C@H]1CCCc3cccnc31)C2
**Query** Just tell me: smaller remaining at 10 min, 0.5 µM value, I or II ? Bench note: the answer is the label of the chosen record.
**Result** II
(II: 49.4%, I: 84.6%)

###

# assayedTarget: C-X-C chemokine receptor type 4 (Homo sapiens)
# Sequence (P61073 whole entry): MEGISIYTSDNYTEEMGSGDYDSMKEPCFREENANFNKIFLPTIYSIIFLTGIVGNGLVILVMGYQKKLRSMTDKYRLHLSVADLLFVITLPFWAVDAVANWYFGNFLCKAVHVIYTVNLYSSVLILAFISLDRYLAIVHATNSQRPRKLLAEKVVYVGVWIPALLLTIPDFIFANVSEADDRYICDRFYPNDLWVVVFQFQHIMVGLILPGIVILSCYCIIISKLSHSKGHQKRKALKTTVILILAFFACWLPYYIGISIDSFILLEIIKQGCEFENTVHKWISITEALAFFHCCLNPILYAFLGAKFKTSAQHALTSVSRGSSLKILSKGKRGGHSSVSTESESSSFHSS
# testDetails: Antagonist activity at human CXCR4 in CCRF-CEM cells assessed as decrease in SDF-1alpha stimulated Ca2+ flux preincubated for 25 mins followed by SDF-1alpha addition measured for 90 secs by calcium dye-based fluorescence assay
pIC50: −log10 of the molar value.
measurementType: pIC50

**Query** Entry under review: `O=S1(=O)CCC(NCCCCN(C[C@H]2Cc3ccccc3CN2)[C@H]2CCCc3cccnc32)CC1` . Reported pIC50?
**Result** 7.34

I = FC1(F)CCC(NCCCCN(C[C@H]2Cc3ccccc3CN2)[C@H]2CCCc3cccnc32)CC1
II = CC(C)(N)CCCN(C[C@H]1Cc2ccccc2CN1)[C@H]1CCCc2cccnc21
**Query** In the pair I and II , the larger recorded pIC50 belongs to which? Bench note: the answer is the label of the chosen record.
**Result** I

###

# testDetails: Metabolic stability in human liver microsomes assessed as parent compound remaining at 0.5 uM after 10 mins in presence of NADPH by LC-MS/MS analysis
measurementType: remaining at 10 min, 0.5 µM (%)

**Query** Entry under review: `C(=C\CN(C[C@H]1Cc2ccccc2CN1)[C@H]1CCCc2cccnc21)/CNCc1ccccn1` . Reported remaining at 10 min, 0.5 µM?
**Result** 31.2

**Query** `CC(C)(N)CCCN(C[C@H]1Cc2ccccc2CN1)[C@H]1CCCc2cccnc21` , same question.
**Result** 73.5

**Query** `NCc1cccc(CN(C[C@H]2Cc3ccccc3CN2)[C@H]2CCCc3cccnc32)c1` , same question.
**Result** 97.3

**Query** `c1ccc(CNCCCCN(C[C@H]2Cc3ccccc3CN2)[C@H]2CCCc3cccnc32)cc1` , same question.
**Result** 71.7

1 = CC(C)(CCN)CN(C[C@H]1Cc2ccccc2CN1)[C@H]1CCCc2cccnc21
2 = c1ccc2c(c1)CN[C@@H](CN(CCCCNCC1CCCCC1)[C@H]1CCCc3cccnc31)C2
3 = c1cncc(CNCCCCN(C[C@H]2Cc3ccccc3CN2)[C@H]2CCCc3cccnc32)c1
4 = c1ccc2c(c1)CN[C@@H](CN(CCCCNCc1ccncc1)[C@H]1CCCc3cccnc31)C2
5 = c1ccc(CN(CCCCN(C[C@H]2Cc3ccccc3CN2)[C@H]2CCCc3cccnc32)Cc2ccccn2)nc1
**Query** # rank_down: sort by remaining at 10 min, 0.5 µM, max first To answer, write out the labels according to the requested order.
**Result** 1, 2, 3, 4, 5

###

# assayedTarget: Cytochrome P450 2D6 (Homo sapiens, UniProt P10635)
# Sequence (P10635 whole entry): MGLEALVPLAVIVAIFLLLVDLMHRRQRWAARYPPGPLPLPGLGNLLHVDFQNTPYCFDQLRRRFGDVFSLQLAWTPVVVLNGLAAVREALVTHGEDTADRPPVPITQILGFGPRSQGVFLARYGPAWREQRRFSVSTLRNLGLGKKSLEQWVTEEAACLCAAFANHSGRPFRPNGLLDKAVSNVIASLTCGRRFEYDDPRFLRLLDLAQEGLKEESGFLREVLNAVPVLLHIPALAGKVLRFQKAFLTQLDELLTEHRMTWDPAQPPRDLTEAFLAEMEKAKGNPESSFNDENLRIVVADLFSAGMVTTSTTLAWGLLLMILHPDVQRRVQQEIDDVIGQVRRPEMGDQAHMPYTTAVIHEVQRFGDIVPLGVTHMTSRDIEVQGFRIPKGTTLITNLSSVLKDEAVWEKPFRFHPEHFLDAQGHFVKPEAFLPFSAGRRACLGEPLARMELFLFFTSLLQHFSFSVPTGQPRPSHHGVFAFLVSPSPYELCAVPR
# testDetails: Inhibition of recombinant human CYP2D6 expressed in microsomes of insect cells using AMMC as substrate preincubated for 30 mins followed by NADP addition after 45 mins by fluorescence analysis
measurementType: IC50 (nM)

**Query** Entry under review: `c1ccc(CNCc2ccc(CN(C[C@H]3Cc4ccccc4CN3)[C@H]3CCCc4cccnc43)cc2)nc1` . Reported IC50?
**Result** 377

**Query** `NC/C=C/CN(C[C@H]1Cc2ccccc2CN1)[C@H]1CCCc2cccnc21` , same question.
**Result** 510

**Query** `C(=C\CN(C[C@H]1Cc2ccccc2CN1)[C@H]1CCCc2cccnc21)/CNCc1cccnc1` , same question.
**Result** 453

1 = CC1(C)CCC(NC/C=C/CN(C[C@H]2Cc3ccccc3CN2)[C@H]2CCCc3cccnc32)CC1
2 = c1ccc2c(c1)CN[C@@H](CN(CCCCN(Cc1ccncc1)Cc1ccncc1)[C@H]1CCCc3cccnc31)C2
3 = c1cncc(CN(CCCCN(C[C@H]2Cc3ccccc3CN2)[C@H]2CCCc3cccnc32)Cc2cccnc2)c1
4 = CC1(C)CCC(NCC(C)(C)CCN(C[C@H]2Cc3ccccc3CN2)[C@H]2CCCc3cccnc32)CC1
5 = NCc1cccc(CN(C[C@H]2Cc3ccccc3CN2)[C@H]2CCCc3cccnc32)c1
**Query** # rank_down: sort by IC50, max first To answer, write out the labels according to the requested order.
**Result** 4, 1, 3, 2, 5
(4: 2220 nM, 1: 660 nM, 3: 348 nM, 2: 120 nM, 5: 32 nM)

###

# assayedTarget: C-X-C chemokine receptor type 4 (Homo sapiens)
# testDetails: Antagonist activity at human CXCR4 in CCRF-CEM cells assessed as decrease in SDF-1alpha stimulated Ca2+ flux preincubated for 25 mins followed by SDF-1alpha addition measured for 90 secs by calcium dye-based fluorescence assay
# Type: functional, cell-based
measurementType: IC90 (nM)

Would you please look over these solved cases?
**Query** Entry under review: `C(=C\CN(C[C@H]1Cc2ccccc2CN1)[C@H]1CCCc2cccnc21)/CNC1CCOCC1` . Reported IC90?
**Result** 191

**Query** `CC(C)(CCN(C[C@H]1Cc2ccccc2CN1)[C@H]1CCCc2cccnc21)CNC1CCOCC1` , same question.
**Result** 416

I = NCCCCN(C[C@H]1Cc2ccccc2CN1)[C@H]1CCCc2cccnc21
II = C(=C\CN(C[C@H]1Cc2ccccc2CN1)[C@H]1CCCc2cccnc21)/CNCC1CCOCC1
**Query** Just tell me: smaller IC90 value, I or II ? Bench note: the answer is the label of the chosen record.
**Result** I

###

# assayedTarget: C-X-C chemokine receptor type 4 (Mus musculus, UniProt P70658)
# Sequence (P70658 whole entry): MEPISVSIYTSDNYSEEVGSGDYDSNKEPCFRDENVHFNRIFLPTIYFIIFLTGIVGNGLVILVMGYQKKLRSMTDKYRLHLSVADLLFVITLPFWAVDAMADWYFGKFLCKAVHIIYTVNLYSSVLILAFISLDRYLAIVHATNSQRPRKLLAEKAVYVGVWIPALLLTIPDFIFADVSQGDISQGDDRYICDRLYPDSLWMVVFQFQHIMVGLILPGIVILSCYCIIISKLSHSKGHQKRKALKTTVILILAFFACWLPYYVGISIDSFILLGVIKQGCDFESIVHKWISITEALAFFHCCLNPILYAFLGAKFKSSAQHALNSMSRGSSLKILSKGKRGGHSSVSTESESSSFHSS
measurementType: pIC50
API: returns pIC50 as number; meaning -log10 of concentration in mol/L.

**Query** Entry under review: `C(=C\CN(C[C@H]1Cc2ccccc2CN1)[C@H]1CCCc2cccnc21)/CNC1CCOCC1` . Reported pIC50?
**Result** 8.03

###

# testDetails: Metabolic stability in human liver microsomes assessed as parent compound remaining at 0.5 uM after 10 mins in presence of NADPH by LC-MS/MS analysis
measurementType: remaining at 10 min, 0.5 µM (%)

**Query** Entry under review: `NC/C=C/CN(C[C@H]1Cc2ccccc2CN1)[C@H]1CCCc2cccnc21` . Reported remaining at 10 min, 0.5 µM?
**Result** 100

I = CC1(C)CCC(NCCCCN(C[C@H]2Cc3ccccc3CN2)[C@H]2CCCc3cccnc32)CC1
II = c1ccc(CNCc2ccc(CN(C[C@H]3Cc4ccccc4CN3)[C@H]3CCCc4cccnc43)cc2)nc1
III = c1ccc2c(c1)CN[C@@H](CN(CCCCNC1CCCCC1)[C@H]1CCCc3cccnc31)C2
IV = c1ccc(CN(CCCCN(C[C@H]2Cc3ccccc3CN2)[C@H]2CCCc3cccnc32)Cc2ccccc2)cc1
**Query** Sort the compounds on remaining at 10 min, 0.5 µM; start with the lowest figure. To answer, write out the labels according to the requested order.
**Result** II, IV, I, III
(II: 1.77%, IV: 4.84%, I: 30.1%, III: 46.1%)
